Target: T1, 4H2839-bN
T1 chain: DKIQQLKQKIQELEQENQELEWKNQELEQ
Experiment: two-hybrid library CCNG1;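 further: natural log of median RNA to DNA barcode read ratio; higher means stronger binding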
Readings of interaction score for the listed binders
MEASURED QUANTITY: interaction score

binder="DKIQQLEQENQELEQKIQELKWKNQELEQ [4H2223-bN]" number=-0.721
binder="DKIQQLKQKIQELEQENQELEWKNQELEQ [4H2839-bN]" number=-0.536
binder="DKIQQLKQENQELEQENQELKWKIQELEQ [4H2717-bN]" number=-0.648
binder="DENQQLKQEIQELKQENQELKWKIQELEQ [4H1629-bN]" number=-1.72

Measured values drawn from paper PMC10397247 for this set.
